Cited source: PubChem BioAssay (NCI)

Hi there, I'd appreciate the recorded GI50 for every entry that follows.
tested on: TK-10 renal; assay: NCI tumour cell line growth inhibition, 48 h

Return reported GI50; argument: COC(=O)[C@H](CC(C)C)NC(=O)NC(=O)NC(=O)CI
1.72 µM

Return reported GI50; argument: N#Cc1cccc(NC(=O)c2oc3ccccc3c2-c2cnn(-c3ccccc3)c2)c1
317 µM

Return reported GI50; argument: COc1c(CNC(=O)CCl)cc2[nH]c(C)cc2c1CNC(=O)CCl
9.17 µM

Return reported GI50; argument: CC(=O)OC[C@]12CC[C@@H]([C@@H](C)C(N)=O)[C@@H]1[C@H]1CC[C@@H]3[C@@]4(C)CC[C@H](OC(C)=O)C(C)(C)[C@@H]4CC[C@@]3(C)[C@]1(C)CC2
14.7 µM

Return reported GI50; argument: C#CCNC(=O)CC[C@]1(C)[C@H]2CC[C@@H]3[C@@H]([C@@](C)(O)CCC=C(C)C)CC[C@@]3(C)[C@]2(C)CC[C@H]1C(=C)C
43.7 µM

Return reported GI50; argument: COc1ccc(C2=C(c3cc(OC)c(OC)c(OC)c3)C(=O)CC2)cc1
12.3 µM

Return reported GI50; argument: c1ccc(-c2nn(-c3ccccc3)[n+](-c3cccc4ccccc34)n2)cc1
8.53 µM

Return reported GI50; argument: CNC(C)C(=O)N[C@H](C(=O)N1CCC[C@@H]1CN(CCc1ccccc1)C(=O)C(F)(F)F)[C@H](C)OCC#CC#CCO[C@H](C)[C@H](NC(=O)[C@H](C)NC)C(=O)N1CCC[C@H]1CN(CCc1ccccc1)C(=O)C(F)(F)F (stereo partly drawn)
2.22 µM
